Value source: patent US20130158238A1

Listed next: entries and their corresponding FACS M2-HK MFI.
# TESTED_ON: M2 protein of A/Hong Kong/483/1997, on cells (Influenza A virus A/Hong Kong/483/97 (H5N1))
# ASSAY_OVERVIEW: FACS, supernatant on CHO cells stably expressing M2 of A/Hong Kong/483/97
Please state the value followed by its unit.

BINDER	FACS M2-HK MFI
3139_P23 (antibody, V domains shown) VH: QVQLQESGPRLVKPSESLSLTCTVSGGSISNSFWGWIRQPPGEGLEWIGYVYNSGNTKYNPSLKSRVTISRDTSKSQLYMKLRSVTAADTAVYYCARHDDASHGYSISWGHGTLVTVSS VL: DIQMTQSPSSLSASVGDRVTITCRASQTISTYLNWYQQKSGKAPKLLIYAASGLQSGVPSRFSGSGSGTDFTLTISSLQPEDFATYFCQQSYNTPLTFGQGTKVEIK	110 MFI
3362_B11 (antibody, V domains shown) VH: QVQLQASGPGLVKPSETLSLTCTVSGDSITSGAYYWTWIRQHPGKGLEWIGYIYYSGNTYYNPSLKSRVTISLDTSKNQFSLKVNSVTAADTAVYYCARAASTSVLGYGMDVWGQGTTVTVSS VL: DIQMTQSPSSLSASVGDRVTITCRASQSISRYLNWYQQEPGKAPKLLVYAASSLQSGVPSRFSGSGSGTDFTLTISSLQPEDFATYYCQQSYSTPLTFGQGTRLEIK	218 MFI

Request: Look up and report measured FACS M2-HK MFI for this entry: 3241_G23 (antibody, V domains shown) VH: QVQLQQSGPGLVKPSQTLSLTCTVSGGPVSGGGYSWNWIRQRPGQGLEWVGFMFHSGSPRYNPTLKSRITISVDTSKNLVSLKLSSVTAADTAVYFCARVGQMDKYYAMDVWGQGTTVTVSS VL: DIQMTQSPSSLSSSVGDRVTITCRASQSIGAYVNWYQQKAGKAPQVLIFGASNLQSGVPSRFSGSGSGTDFTLTISSLQPEDFATYFCQQTYSTPITFGQGTRLEIK
Result: 1700 MFI
